System: monoclonal antibody MV-002
Test: In vitro binding assay (ELISA), BSA-coupled peptides, parental antibody MV-002
Set-up: species or system C57/B16 mice
Settings: Table 1 (MV-002); peptide-BSA on plate, compared to original epitope
Procedure: Peptides derived from Phage Display as well as variants thereof were coupled to BSA and bound to ELISA plates (1 μM; as indicated in the respective figures) and subsequently incubated with the monoclonal antibody that was used for the screening procedure to analyse binding capacity of identified peptides. Legend to Table 1: the binding capacity is coded by the following binding code: 1:X describes the dilution factor of the parental AB. Ac- . . . indicates acetylated AA.
Ends that are not written are not given here.
Observed Property: Binding Capacity

>>> reported_measurement("Ac-GEIYFERC [p4804]")
"2 (medium binding :40000-320000)"
>>> reported_measurement("GEIRFALC [p4678]")
"3 (strong binding :>320000)"
>>> reported_measurement("SGEYVFHC [p4404]")
"1 (weak binding :<40000)"
>>> reported_measurement("HMRLFFNC [p4670]")
"3 (strong binding :>320000)"
>>> reported_measurement("GEIKFDHC [p4698]")
"3 (strong binding :>320000)"
>>> reported_measurement("GEIRFGSC [p4696]")
"3 (strong binding :>320000)"
>>> reported_measurement("HQKMIFAC [p4675]")
"3 (strong binding :>320000)"
>>> reported_measurement("GELYFRAC [p4677]")
"3 (strong binding :>320000)"
>>> reported_measurement("HQKMIFC [p4794]")
"2 (medium binding :40000-320000)"
>>> reported_measurement("SGQIWFRC [p4414]")
"1 (weak binding :<40000)"
>>> reported_measurement("GSLFFWPC [p4688]")
"2 (medium binding :40000-320000)"
>>> reported_measurement("QLPLFVLC [p4700]")
"1 (weak binding :<40000)"
>>> reported_measurement("GEMQFFIC [p4676]")
"3 (strong binding :>320000)"
>>> reported_measurement("SGEIYFERC [p4805]")
"1 (weak binding :<40000)"
>>> reported_measurement("AGEIYFERC [p4806]")
"1 (weak binding :<40000)"
>>> reported_measurement("NDAKIVFC [p4667]")
"3 (strong binding :>320000)"
>>> reported_measurement("GEIWFEGC [p4680]")
"3 (strong binding :>320000)"
